Target: T1, TNFR1 (Homo sapiens, UniProt P19438)
T1 chain: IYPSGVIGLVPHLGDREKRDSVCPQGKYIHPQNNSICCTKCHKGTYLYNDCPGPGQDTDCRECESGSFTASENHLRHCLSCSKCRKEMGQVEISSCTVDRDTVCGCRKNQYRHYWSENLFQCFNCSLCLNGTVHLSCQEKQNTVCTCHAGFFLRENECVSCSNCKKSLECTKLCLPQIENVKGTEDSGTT
Assay: yeast display SC50
Hi! Could you tag entries with apparent Kd (screen) below 1 nM as fulfilled, and those at or above as not fulfilled? Much appreciated.

1. A28K (designed binder) MTLQELLREEALRRAEAEAFRYALELLKEKFPEQKEYLLDLAEEIESQIRSLSGVDVEDVRKFLDKEWAWVKELLAEHPAELAEVEAARAARLAELRAEVEAKVAA :: not fulfilled
2. E10S (designed binder) MTLQELLRESALRRAEAEAFRYALELLAEKFPEQKEYLLDLAEEIESQIRSLSGVDVEDVRKFLDKEWAWVKELLAEHPAELAEVEAARAARLAELRAEVEAKVAA :: not fulfilled
3. L96R (designed binder) MTLQELLREEALRRAEAEAFRYALELLAEKFPEQKEYLLDLAEEIESQIRSLSGVDVEDVRKFLDKEWAWVKELLAEHPAELAEVEAARAARLAERRAEVEAKVAA :: fulfilled
4. H78C (designed binder) MTLQELLREEALRRAEAEAFRYALELLAEKFPEQKEYLLDLAEEIESQIRSLSGVDVEDVRKFLDKEWAWVKELLAECPAELAEVEAARAARLAELRAEVEAKVAA :: fulfilled
5. E10P (designed binder) MTLQELLREPALRRAEAEAFRYALELLAEKFPEQKEYLLDLAEEIESQIRSLSGVDVEDVRKFLDKEWAWVKELLAEHPAELAEVEAARAARLAELRAEVEAKVAA :: not fulfilled
6. L12P (designed binder) MTLQELLREEAPRRAEAEAFRYALELLAEKFPEQKEYLLDLAEEIESQIRSLSGVDVEDVRKFLDKEWAWVKELLAEHPAELAEVEAARAARLAELRAEVEAKVAA :: not fulfilled
7. E99P (designed binder) MTLQELLREEALRRAEAEAFRYALELLAEKFPEQKEYLLDLAEEIESQIRSLSGVDVEDVRKFLDKEWAWVKELLAEHPAELAEVEAARAARLAELRAPVEAKVAA :: not fulfilled
8. R13S (designed binder) MTLQELLREEALSRAEAEAFRYALELLAEKFPEQKEYLLDLAEEIESQIRSLSGVDVEDVRKFLDKEWAWVKELLAEHPAELAEVEAARAARLAELRAEVEAKVAA :: fulfilled
